The measured values listed here are drawn from patent US9975910B2.

# Assay Overview: Evaluation on lipid solubility: distribution ratio (D) of 1-octanol to water by ODS column HPLC
# Format: physicochemical
# Condition Notes: 1-octanol/water, pH 6.8, from HPLC retention on ODS column
For each record, write down the corresponding chromatographic logD.
Give a plain numeric answer without units written out.

Form: molecule = Cc1nc(N)c(C(=O)NCc2ccc(COc3ccccn3)cc2)nc1C [Comparative Example 2, reference compound] ; chromatographic logD = 3.26

Form: molecule = Cc1cc(C(=O)NCc2ccc(OCc3ccccc3)cc2)c(N)nc1C [Comparative Example 3, reference compound] ; chromatographic logD = 3.41

Form: molecule = Nc1nc2c(cc1C(=O)NCc1ccc(OCc3ccccc3)cc1)COC2 [Reference Example 3] ; chromatographic logD = 2.72

Form: molecule = Nc1ccc(C(=O)NCc2ccc(Cc3cc4c(s3)COC4)cc2)c(N)n1 [Reference Example 1] ; chromatographic logD = 2.15

Form: molecule = Cc1cc(Cc2ccc(CNC(=O)c3ccc(N)nc3N)cc2)sc1C [Comparative Example 1, reference compound] ; chromatographic logD = 3.27

Form: molecule = Nc1nc2c(nc1C(=O)NCc1ccc(COc3ccccn3)cc1)COC2 [Reference Example 2] ; chromatographic logD = 2.72
